# target: T1, recombinant human CD3 epsilon/delta heterodimer (human, UniProt P07766 23-126; P04234 22-105)
# T1 construct: Recombinant protein in solution (200-50 nM) in the Octet assay; also called hCD3 E/D; human CD3E/D
# T1 sequence (P07766 23-126, stated change not applied, chain 1 of 2): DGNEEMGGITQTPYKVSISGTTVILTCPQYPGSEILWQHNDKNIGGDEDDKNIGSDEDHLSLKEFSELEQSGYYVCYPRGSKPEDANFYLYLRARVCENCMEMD
# T1 sequence (P04234 22-105, stated change not applied, chain 2 of 2): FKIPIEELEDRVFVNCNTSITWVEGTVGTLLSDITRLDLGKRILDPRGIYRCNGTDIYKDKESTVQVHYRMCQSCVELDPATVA
# test method notes: Octet BLI, mAb on FAB2G sensor, hCD3 E/D 200-50 nM; R^2 0.98;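 further: antibodies purified from hybridoma supernatants, measured by Octet binding to recombinant human CD3 protein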
Entry flag: true if Response reaches 0.3; false if it does not.

binder: ABL-CD3-21 (antibody, V domains shown, Chimeric hybridoma mAb: human V, CH1, upper hinge; mouse middle hinge, CH2, CH3) VH: EVQLVESGGGLVKPGGSLRLSCAASGFTFSSYSMNWVRQAPGKGLEWVSSISRSSSYIYYADSVKGRFTLSRDNAKNSLYLQMNSLRGEDTAIYYCGRDGKGAIFLDYWGQGTLVTVSS VL: SYELTQPPSVSVSPGQTARITCSGDALPKKYAYWYQQKSGQAPVLVIYEDSKRPSGIPERFSGSSSGTMATLTISGAQVEDEADYYCYSTHSSGNHRVFGGGTKLTVL
assigned label: false

binder: ABL-CD3-34 (antibody, V domains shown, Chimeric hybridoma mAb: human V, CH1, upper hinge; mouse middle hinge, CH2, CH3) VH: EVHLVESGGGLVKPGGSLRLSCAASGFTFSRYSMNWVRQAPGKGLEWVSSISRSSSYIYYADSVKGRFTISRDNAKNSLYLQMNSLRAEDTAVYYCAREPRTLGMDYWGQGILVTVSS VL: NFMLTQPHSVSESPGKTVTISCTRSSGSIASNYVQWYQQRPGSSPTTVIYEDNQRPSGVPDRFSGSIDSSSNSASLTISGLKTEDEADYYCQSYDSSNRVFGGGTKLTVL
assigned label: true

binder: ABL-CD3-44 (antibody, V domains shown, Chimeric hybridoma mAb: human V, CH1, upper hinge; mouse middle hinge, CH2, CH3) VH: EVQLVESGGGLVQPGGSLRLSCAASGFTFSTYWMSWVRQAPGKGLEWVANIKQDGSEKYYVDSVKGRFTISRDNAKNSLYLQMNSLRAEDTAVYYCATGSFDYWGQGTLVTVSS VL: QPVLTQPSSHSASSGASVRLTCMLSSGFSVGDFWIRWYQQKPGNPPRYLLFYHSDSNKGQGSGVPSRFSGSNDASANAGILRISGLQPEDEADYYCGTWHSNSKTWVFGGGTKLTVL
assigned label: false

binder: ABL-CD3-52 (antibody, V domains shown, Chimeric hybridoma mAb: human V, CH1, upper hinge; mouse middle hinge, CH2, CH3) VH: EVQLVESGGGLVKPGGSLRLSCAASGFTFSYYSMNWVRQAPGKGLEWVSSISRSTTYIYYADSVKGRFTISRDNAKNSLYLQMNSLRAEDTAVYYCARDGKGAIFLDYWGQGTLVTVSS VL: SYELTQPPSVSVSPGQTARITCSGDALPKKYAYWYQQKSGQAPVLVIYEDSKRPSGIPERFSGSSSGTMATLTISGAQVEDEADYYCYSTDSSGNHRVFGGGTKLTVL
assigned label: true

binder: ABL-CD3-51 (antibody, V domains shown, Chimeric hybridoma mAb: human V, CH1, upper hinge; mouse middle hinge, CH2, CH3) VH: EVQLVESGGGLVKPGGSLRLSCAASGFTFSSYSMNWVRQAPGKGLEWVSSISRSSSYIYYADSVKGRFTISRDNAKNSLYLQMNSLRAEDTAVYYCARERWELLYFDYWGQGTLVTVSS VL: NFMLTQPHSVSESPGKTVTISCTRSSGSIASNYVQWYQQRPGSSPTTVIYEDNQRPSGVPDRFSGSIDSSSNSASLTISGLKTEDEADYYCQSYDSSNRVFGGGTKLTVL
assigned label: false
